The entries below come with measured self-splicing fitness (ln) values attached.
- METHOD NOTES: self-splicing fitness, log relative to wild type (ln ratio); higher = more splicing; Tetrahymena group I intron in knt gene, E. coli kanamycin selection, DiMSum; sequences stand for … in CUCUCU…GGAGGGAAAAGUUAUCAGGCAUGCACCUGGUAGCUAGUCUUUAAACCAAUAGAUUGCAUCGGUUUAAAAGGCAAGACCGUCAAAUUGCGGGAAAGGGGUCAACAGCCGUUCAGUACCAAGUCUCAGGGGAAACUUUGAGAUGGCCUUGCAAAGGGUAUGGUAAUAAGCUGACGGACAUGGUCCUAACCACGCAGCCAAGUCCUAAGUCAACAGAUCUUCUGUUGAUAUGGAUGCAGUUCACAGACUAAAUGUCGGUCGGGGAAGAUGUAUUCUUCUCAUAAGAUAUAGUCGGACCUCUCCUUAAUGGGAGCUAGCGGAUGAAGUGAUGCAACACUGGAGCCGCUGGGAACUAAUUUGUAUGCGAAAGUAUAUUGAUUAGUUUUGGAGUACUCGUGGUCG;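 note: selection with 25 µg/mL kanamycin versus none on LB agar overnight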
- RECORDED CONDITIONS: 37 °C
In your answer, state the number alone without any accompanying words.

1. AGAUAGCAAUAUUACGAUCU :: -0.462
2. UUUGAGCAAUAUUACGCUUG :: -1.63
3. GGAUAGCAAUAUUACGGUAU :: -0.924
4. ACUCAGCAAUAUUACGUCGA :: -1.94
5. UGAAAGCAAUAUUACGGUAU :: -0.827
6. UCGCAGCAAUAUUACGUUCA :: 0.0196
7. CUUUAGCAAUAUUACGAGGA :: -3.02
8. CCUGAGCAAUAUUACGUGCU :: -2.24

q: Param item = AAUAAGCAAUAUUACGGACC ; retrieve measured self-splicing fitness (ln).
a: -0.72

q: I'd like to know its self-splicing fitness (ln). The sequence in question is GCGAAGCAAUAUUACGGUUG
a: -1.9

q: self-splicing fitness (ln) lookup needed for CGUCAGCAAUAUUACGUAGA , thanks.
a: -0.865

q: Which self-splicing fitness (ln) is listed for UCUGAGCAAUAUUACGAUUU ?
a: -1.31

q: // returns reported self-splicing fitness (ln) for input UAAGAGCAAUAUUACGCUUA
a: -2.63

q: Any idea what self-splicing fitness (ln) was measured for UUCUAGCAAUAUUACGGCAA ?
a: 0.334

q: # self-splicing fitness (ln) lookup, item ACGAAGCAAUAUUACGAUAA
a: -1.39

q: What value of self-splicing fitness (ln) has been reported for the following sequence? CGACAGCAAUAUUACGGUUU
a: -0.714

q: If you can, please state the reported self-splicing fitness (ln) value of UAACAGCAAUAUUACGCGCU .
a: -0.612

q: Could you share which self-splicing fitness (ln) value was measured for CAUCAGCAAUAUUACGGACU ?
a: -0.896

q: Report self-splicing fitness (ln) for UAUAAGCAAUAUUACGGGUC please.
a: -1.78

q: I'd like to know its self-splicing fitness (ln). The sequence in question is AGACAGCAAUAUUACGGGAG
a: -2.89

q: Requested field: self-splicing fitness (ln). Item: GUAAAGCAAUAUUACGUUUG
a: -1.34

q: self-splicing fitness (ln) lookup needed for CCUUAGCAAUAUUACGGAGC , thanks.
a: -2.4

q: What value of measured self-splicing fitness (ln) is listed for UACCAGCAAUAUUACGCCCU ?
a: 0.138

Hey, just so you know, these numbers are from the supplement of paper PMC7877785.
